# studyTarget: Apurinic/apyrimidinic endonuclease 1 (APE1) (Homo sapiens)
# Construct: gene APEX1
# Sequence (P27695 2-318): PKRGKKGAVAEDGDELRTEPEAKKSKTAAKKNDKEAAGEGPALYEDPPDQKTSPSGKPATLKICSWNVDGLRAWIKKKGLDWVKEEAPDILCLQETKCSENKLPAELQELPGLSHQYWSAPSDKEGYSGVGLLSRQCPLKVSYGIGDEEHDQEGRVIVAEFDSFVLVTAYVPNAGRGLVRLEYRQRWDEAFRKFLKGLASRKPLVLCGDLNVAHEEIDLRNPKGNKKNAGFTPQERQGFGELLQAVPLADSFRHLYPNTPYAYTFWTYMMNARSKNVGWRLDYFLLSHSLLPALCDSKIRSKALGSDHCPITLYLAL
# runDescription: fluorescent HCR/G-quadruplex-ThT assay of AP-site cleavage by purchased APE1; also in cell lysates
# Format: biochemical
measureName: IC50

cpdsmiles=O=C(O)c1cc2cccc([N+](=O)[O-])c2[nH]1 measurename=IC50 reportedresult="~3.5 µM"

* * *

# studyTarget: Apurinic/apyrimidinic endonuclease 1 (APE1) (Homo sapiens)
# Construct: gene APEX1
# runDescription: fluorescent HCR/G-quadruplex-ThT assay of AP-site cleavage by purchased APE1; also in cell lysates
# Format: biochemical
# reportedConditions: read-out: IC50
pIC50: −log10 of the molar value.
measureName: pIC50

compound="CO/N=C(\\C(=O)N[C@@H]1C(=O)N2C(C(=O)O)=C(COC(C)=O)CS[C@H]12)c1csc(N)n1 [cefotaxime sodium]" studytarget="Apurinic/apyrimidinic endonuclease 1 (APE1) (Homo sapiens)" reportedresult=~4.12
